Experiment: in vitro
Assay type: cell-based
Conditions: human, Extended 8-pt Assay; three days incubation
readout kind: CC50 at 3 days (µM)
Entry rule: numbers only, all in µM.

> print(dat)
                                   compound    readout.kind  meas.value
1  Cc1cc(CSC(C)(C)[C@@H](NS(=O)(=O)c2ccc(Oc3ccc(Br)cc3)cc2)C(=O)NO)no1 [Example 14]  CC50 at 3 days          41
2  CS(=O)(=O)N1CCN(S(=O)(=O)c2ccc(Oc3ccc(F)cc3)cc2)[C@@H](C(=O)NO)C1 [Example 11]  CC50 at 3 days          15

Field: next compound
Assign CC50 at 3 days to the following record: CC(=O)N1CCN(S(=O)(=O)c2ccc(Oc3ccccc3)cc2)C(C(=O)NO)C1 (centres unmarked) [Example 9] 79

Data origin, for the record: patent US20040229817A1
